target: Sialidase-1 (Homo sapiens, UniProt Q99519)
observed-property: IC50

>>> endpoint_result("CC(=O)N[C@H]1[C@H]([C@H](O)[C@H](O)CO)O[C@](O)(C(=O)O)C[C@@H]1O")
"> 500 µM"
